Source: paper PMC6407917

Molecular target: SIK2 (Homo sapiens, UniProt Q9H0K1)
Sequence (Q9H0K1 whole entry): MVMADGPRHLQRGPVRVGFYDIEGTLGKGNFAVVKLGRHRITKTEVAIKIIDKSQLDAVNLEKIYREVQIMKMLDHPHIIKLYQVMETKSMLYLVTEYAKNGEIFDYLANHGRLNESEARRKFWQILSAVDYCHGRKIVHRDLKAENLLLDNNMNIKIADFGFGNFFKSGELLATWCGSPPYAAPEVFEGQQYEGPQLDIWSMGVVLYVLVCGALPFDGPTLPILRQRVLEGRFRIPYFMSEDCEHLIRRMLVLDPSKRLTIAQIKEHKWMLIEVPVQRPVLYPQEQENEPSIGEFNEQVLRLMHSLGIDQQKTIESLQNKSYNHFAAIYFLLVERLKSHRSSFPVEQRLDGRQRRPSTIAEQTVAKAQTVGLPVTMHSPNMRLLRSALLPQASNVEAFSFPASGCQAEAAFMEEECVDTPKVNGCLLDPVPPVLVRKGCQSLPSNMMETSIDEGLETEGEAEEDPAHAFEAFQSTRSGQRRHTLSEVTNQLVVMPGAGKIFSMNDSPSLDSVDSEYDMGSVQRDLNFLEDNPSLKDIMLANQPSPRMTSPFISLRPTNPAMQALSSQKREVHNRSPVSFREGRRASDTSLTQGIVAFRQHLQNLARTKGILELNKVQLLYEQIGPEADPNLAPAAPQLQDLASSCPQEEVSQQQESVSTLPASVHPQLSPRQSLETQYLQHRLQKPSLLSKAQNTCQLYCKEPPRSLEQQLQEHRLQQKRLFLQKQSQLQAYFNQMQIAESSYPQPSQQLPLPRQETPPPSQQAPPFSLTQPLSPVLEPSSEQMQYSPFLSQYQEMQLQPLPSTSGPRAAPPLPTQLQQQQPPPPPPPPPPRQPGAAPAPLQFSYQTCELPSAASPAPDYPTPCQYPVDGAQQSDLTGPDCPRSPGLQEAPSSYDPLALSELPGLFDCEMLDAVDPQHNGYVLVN
Assay: biochemical
Set-up: species or system HEK293/K-562/placenta mixed human extract; Kinobeads chemoproteomic competition binding, quantified by TMT LC-MS/MS, dose response up to 20 uM
Measured Quantity: IC50

Any idea what IC50 was measured for COc1nc(N[C@H]2CC[C@H](NS(=O)(=O)CC(C)C)CC2)nc2[nH]nc(N3CCOC[C@H]3C)c12 ?
≥ 20 µM

----------
Measured Quantity: IC50

# returns recorded IC50 (system: UniProt:Q8TDY2) for COc1nc(N[C@H]2CC[C@H](NS(=O)(=O)CC(C)C)CC2)nc2[nH]nc(N3CCOC[C@H]3C)c12
# Sequence (Q8TDY2 whole entry): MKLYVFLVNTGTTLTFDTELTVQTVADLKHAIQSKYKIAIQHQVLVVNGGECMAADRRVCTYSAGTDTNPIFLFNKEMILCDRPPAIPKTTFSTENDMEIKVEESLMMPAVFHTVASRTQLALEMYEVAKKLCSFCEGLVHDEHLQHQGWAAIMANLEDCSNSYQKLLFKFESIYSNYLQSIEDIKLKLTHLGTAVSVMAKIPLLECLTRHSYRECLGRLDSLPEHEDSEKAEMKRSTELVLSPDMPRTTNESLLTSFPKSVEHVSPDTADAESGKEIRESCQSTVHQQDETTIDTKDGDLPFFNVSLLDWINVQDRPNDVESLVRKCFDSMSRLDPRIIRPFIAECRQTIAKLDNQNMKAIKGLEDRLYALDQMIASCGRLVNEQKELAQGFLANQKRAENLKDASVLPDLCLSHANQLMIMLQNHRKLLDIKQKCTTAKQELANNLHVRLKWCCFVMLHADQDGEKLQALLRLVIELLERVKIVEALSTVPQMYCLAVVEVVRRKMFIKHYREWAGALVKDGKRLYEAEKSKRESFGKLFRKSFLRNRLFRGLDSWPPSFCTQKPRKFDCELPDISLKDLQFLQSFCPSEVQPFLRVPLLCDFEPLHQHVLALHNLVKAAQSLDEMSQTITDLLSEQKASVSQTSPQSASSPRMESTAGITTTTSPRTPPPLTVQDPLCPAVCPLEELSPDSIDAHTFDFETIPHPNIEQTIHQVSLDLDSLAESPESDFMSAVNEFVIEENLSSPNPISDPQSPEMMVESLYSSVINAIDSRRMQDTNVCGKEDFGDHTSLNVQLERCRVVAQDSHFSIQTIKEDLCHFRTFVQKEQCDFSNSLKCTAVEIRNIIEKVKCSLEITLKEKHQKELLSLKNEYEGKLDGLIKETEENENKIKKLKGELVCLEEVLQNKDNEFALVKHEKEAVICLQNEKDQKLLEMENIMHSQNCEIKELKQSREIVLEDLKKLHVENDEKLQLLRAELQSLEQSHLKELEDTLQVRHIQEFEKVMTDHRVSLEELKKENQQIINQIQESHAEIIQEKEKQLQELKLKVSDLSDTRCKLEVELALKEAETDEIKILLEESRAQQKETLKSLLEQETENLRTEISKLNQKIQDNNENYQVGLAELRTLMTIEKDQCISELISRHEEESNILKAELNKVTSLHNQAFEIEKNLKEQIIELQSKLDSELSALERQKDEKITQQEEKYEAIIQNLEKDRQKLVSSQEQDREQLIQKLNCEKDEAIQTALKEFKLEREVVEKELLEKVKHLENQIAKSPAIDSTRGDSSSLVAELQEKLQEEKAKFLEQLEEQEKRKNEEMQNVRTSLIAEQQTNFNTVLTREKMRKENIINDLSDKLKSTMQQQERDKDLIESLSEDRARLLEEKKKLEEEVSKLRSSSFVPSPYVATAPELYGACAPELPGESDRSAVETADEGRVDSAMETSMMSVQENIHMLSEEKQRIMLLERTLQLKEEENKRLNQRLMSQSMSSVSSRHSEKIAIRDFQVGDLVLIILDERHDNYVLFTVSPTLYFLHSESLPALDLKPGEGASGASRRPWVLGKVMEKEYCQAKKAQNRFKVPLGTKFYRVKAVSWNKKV
≥ 20 µM
